# TGI listing for each entry below
System: NCI-H522 lung
assay procedure: NCI tumour cell line growth inhibition, 48 h

Please review the following examples before continuing.
compound	TGI
Cc1ccc(C2NC(=S)NC3=C2CCOc2c3ccc3ccccc23)cc1 (centres undefined)	> 100 µM
CCCCCC(O)C1C(=O)OC(C)C(O)/C=C/C=C/C=C/C=C\C=C(\C)C(O)CC(O)CC(O)CC(O)CC(O)CC(O)CC1O (centres undefined)	> 100 µM
O=c1oc2ccccc2c(O)c1C(c1ccco1)c1c(O)c2ccccc2oc1=O	41.8 µM

Query string: So what's the measured TGI for this one? CCOC(=O)CCC(NC(=O)c1ccc(Oc2nc3ccc(C(F)(F)F)cc3nc2-c2ccccc2)cc1)C(=O)OCC (centres undefined)
Result string: > 100 µM

Query string: Query O=C1CCC[C@]2(CCC[C@@H](O)C2)N1 next
Result string: > 100 µM

* * *

Test system: OVCAR-5 ovarian
assay procedure: NCI tumour cell line growth inhibition, 48 h
# TGI listing for each entry below

Please review the following examples before continuing.
compound	property name	result
COc1ccc(N2C(=O)C3ON(C(C(N)=O)c4ccccc4)C(c4ccc(-c5ccccc5)cc4)C3C2=O)cc1 (stereo unspecified)	TGI	> 50 µM
CCOc1ccc([C@@H]2[C@@H](Oc3ccccc3)C(=O)N2c2cc(OC)c(OC)c(OC)c2)cc1	TGI	> 100 µM
Cc1c(CCOC=O)c(=O)[nH]c2nncn12	TGI	> 100 µM

Query string: So what's the measured TGI for this one? COc1ccc(C(=O)c2ccc(OC)c(OC)c2OC)cc1
Result string: > 100 µM

Query string: Query COCC1CCCN1c1ccc(/C=C(/C#N)C(N)=S)cc1 (stereo unspecified) next
Result string: > 100 µM

Query string: Query CON(C)C(C#N)=C(C#N)C#N next
Result string: > 10 µM

* * *

Test system: NCI/ADR-RES ovarian
assay procedure: NCI tumour cell line growth inhibition, 48 h
# TGI listing for each entry below

compound	TGI
COCC1CCCN1c1ccc(/C=C(/C#N)C(N)=S)cc1 (stereo unspecified)	> 100 µM
C/C(=N\NC(=O)c1ccncc1)c1ccc2ccccc2c1O	> 54.3 µM
O=C1CCC[C@]2(CCC[C@@H](O)C2)N1	> 100 µM
CSc1nc(-c2cc3c(c(SC)n2)CCCCC3)cc2c1CCCCC2	> 100 µM
CC1(C)CC(=O)C2=C(C1)OC1=C(C(=O)CC(C)(C)C1)C2CC(c1ccccc1)c1ccc(O)c(O)c1O (stereo unspecified)	> 10 µM
COc1ccc(Nn2c(SCC(=O)Nc3nc(-c4ccc(Cl)cc4)cs3)nc(C)c2C)cc1	> 100 µM

Query string: So what's the measured TGI for this one? O=c1[nH]c(Nc2cccc(C(F)(F)F)c2)nc2nc[nH]c12
Result string: > 100 µM

Query string: Query CON(C)C(C#N)=C(C#N)C#N next
Result string: > 10 µM

Query string: Query CCCCn1c(C)c(C(=O)OCC)s/c1=N/Nc1nc2ccccc2nc1-c1ccccc1 next
Result string: > 100 µM

* * *

System: SW-620 colon
assay procedure: NCI tumour cell line growth inhibition, 48 h
property name: TGI

Please review the following examples before continuing.
molecule	TGI
CC1=C2C(=O)[C@H]3[C@@H](CC=C4C[C@@H](O)CC[C@@]43C)[C@@H]2CC[C@]12O[C@@H]1C[C@H](C)CN[C@H]1[C@H]2C	> 79.9 µM
COC(=O)C1(Cc2ccc3c(c2)CCC3)Cc2ccc3c(c2C1O)CCC3 (configuration not stated)	30.2 µM

Query string: So what's the measured TGI for this one? COc1ccc(-c2csc(=Nc3ccccc3)n2CC(O)c2ccc([N+](=O)[O-])cc2)cc1 (configuration not stated)
Result string: > 100 µM

Query string: Query CCCCCCCCCCCCCCCCCC1=NCCN1CS(=O)(=O)O next
Result string: 31.2 µM

Query string: Query COc1ccc2oc3c4c2c1CCC4CCC3=O (configuration not stated) next
Result string: > 100 µM

Query string: Query CC1CC[C@@]2(OC1)OC1C[C@H]3[C@@H]4C/C(=N\N(C)C)[C@@]5(O)CC(O)CC[C@]5(C)[C@H]4CC[C@]3(C)C1[C@@H]2C (some centres not stated) next
Result string: > 100 µM

Query string: Query NC(=NCCCOc1ccc(Cl)cc1)Nc1ccc(Cl)cc1 next
Result string: 5.59 µM

Query string: Query N#Cc1c(-c2ccc([N+](=O)[O-])cc2)cc(-c2ccc(Nc3ccnc4cc(C(F)(F)F)ccc34)cc2)nc1N next
Result string: 59.2 µM

Reference source: PubChem BioAssay (NCI)
